Tested on: A549 NSCLC
TEST: NCI tumour cell line growth inhibition, 48 h
RECORDED METRIC: TGI (µM)
Number in µM, nothing else.

## Task Checklist item: TGI tested on A549 NSCLC, entry CC1=NNC(N)=N/C1=C/C(Sc1ccc(Cl)cc1)c1cccs1 (stereo not given) , value?
## Result 38.8

## Task Checklist item: TGI tested on A549 NSCLC, entry O=C(Nc1cccc2nsnc12)c1cc2c(cc1Cl)Sc1nccn1S2(=O)=O , value?
## Result 56.1

## Task Checklist item: TGI tested on A549 NSCLC, entry Cc1ccc2c(c1)c(=O)c1c(NCCN(C)C)ccc3nnn2c31 , value?
## Result 13.6

## Task Checklist item: TGI tested on A549 NSCLC, entry CC[C@@]1(OC(=O)CN)C(=O)OCc2c1cc1n(c2=O)Cc2cc3cc(N)ccc3nc2-1 , value?
## Result 1.45

====

Test system: OVCAR-4 ovarian
TEST: NCI tumour cell line growth inhibition, 48 h
RECORDED METRIC: TGI

Here are 4 compounds together with their reported answers.
{"COMPOUND": "COc1ccc(C[C@H]2C[C@@H](O)[C@@H](C)C/C=C/Cc3cccc(O)c3C(=O)O2)cn1", "TGI": "74.1 µM"}
{"COMPOUND": "CC1Cc2c(N(C)C)ncnc2N(C)c2ccc(Cl)cc21 (centres undefined)", "TGI": "> 100 µM"}
{"COMPOUND": "COc1cc(N=Nc2cccc(S(=O)(=O)O)c2)c(C)cc1N=Nc1ccc(/C=C/c2ccc(N=[N+]([O-])c3ccc(/C=C/c4ccc(N=Nc5cc(C)c(N=Nc6cccc(S(=O)(=O)O)c6)cc5OC)cc4)c(S(=O)(=O)O)c3)cc2S(=O)(=O)O)cc1", "TGI": "> 100 µM"}
{"COMPOUND": "O=C1CSC2(CC(/C=C/C=C/c3ccccc3)=NN2c2cccc(S(=O)(=O)O)c2)N1c1nc2ccccc2s1 (centres undefined)", "TGI": "> 100 µM"}

## Task I have this compound here, C/C(=N\N=C(N)N)c1c(C(=O)OCCCCCCOC(=O)c2nc3sccn3c2/C(C)=N/N=C(N)N)nc2sccn12 , and I need its recorded TGI.
## Result > 100 µM

## Task I have this compound here, CCOC(=O)C1C(c2cc(OC)c(O)c(OC)c2)c2cc3c(cc2OC1(C)O)OCO3 (centres undefined) , and I need its recorded TGI.
## Result > 100 µM

## Task I have this compound here, Cc1cc(N(CCC#N)S(=O)(=O)c2ccccc2)ccc1C=O , and I need its recorded TGI.
## Result > 100 µM

## Task I have this compound here, Oc1cccc(-c2nc3ccccc3s2)c1 , and I need its recorded TGI.
## Result > 100 µM

## Task I have this compound here, O=c1oc(-c2ccc(O)c(O)c2)cc2cc(O)cc(O)c12 , and I need its recorded TGI.
## Result > 100 µM

## Task I have this compound here, CC1=NNC(N)=N/C1=C/C(Sc1ccc(Cl)cc1)c1cccs1 (centres undefined) , and I need its recorded TGI.
## Result 76.6 µM

## Task I have this compound here, O=C(OCc1ccccc1CN1CCOCC1)c1ccc(Br)cc1 , and I need its recorded TGI.
## Result > 100 µM

====

Test system: NCI-H226 lung
TEST: NCI tumour cell line growth inhibition, 48 h
Listed here are compounds together with their documented TGI.
Number in µM, nothing else.

Here are 2 compounds together with their reported answers.
{"COMPOUND": "CNc1ccc2nc(-c3ccc(OC(=O)N(C)C)cc3)cn2c1", "TGI (µM)": 37.4}
{"COMPOUND": "O=C1c2cc([N+](=O)[O-])ccc2NC2C(O)c3ccccc3N12 (stereo not given)", "TGI (µM)": 82.9}

## Task I have this compound here, CN1C(=O)c2cc(Cl)nc3c(NC(=O)c4cccc(Cl)c4)c(Cl)c(NC(=O)c4cccc(Cl)c4)c1c23 , and I need its recorded TGI.
## Result 4.05

## Task I have this compound here, N#Cc1c2c(c(N=[N+]=[N-])n3c1nc1ccccc13)CCCC2 , and I need its recorded TGI.
## Result 3.35

## Task I have this compound here, O=C1C=CC(=O)c2c(O)c(N3CCSCC3)c(Cl)c(O)c21 , and I need its recorded TGI.
## Result 1.82

## Task I have this compound here, C/C(=C(/c1ccc(O)cc1)c1ccc(OCCN2CCCC2)cc1)c1ccccc1 , and I need its recorded TGI.
## Result 29.8
